ASSAY_REMARKS: Quantitative highthroughput screen to assess conditional lethalithy of SEM cells grown in RPMI1640 with dialyzed fetal bovine serum (RPMI+ds) (AID 1963884); note: nearly all actives have a fitted effect of over 35% in size;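 for viability: 100% = DMSO control wells and 0% = empty wells without cells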
MEASUREMENT_CONTEXT: SEM B-ALL cells, RPMI+dialyzed FBS, CellTiter-Glo viability, 48 h; series mostly up to 45.8 µM
Results filed as inconclusive are left out. Calls of active or inactive are those of the source. Calls come from the whole dose curve; as a rule, active = well fitted cell-killing curve with a large enough effect; inconclusive = small, poorly fitted or top-dose-only effect, or effect the other way; inactive = no such curve, though single readings can be large or run the other way.
Hi! Could you answer with just one of these? active, inactive

Problem: Name the outcome recorded for `CNC(=O)c1ccc2c(C(=Nc3cccc(CN(C)C)c3)c3ccccc3)c(O)[nH]c2c1` in the assay.
Result: active

Problem: Name the outcome recorded for `COc1cc2c(Nc3ccc(NC(=O)c4ccccc4)cc3)ncnc2cc1OCCCN1CCOCC1` in the assay.
Result: active

Problem: Name the outcome recorded for `CN(c1nccc(=O)[nH]1)C1CCN(c2nc3ccccc3n2Cc2ccc(F)cc2)CC1` in the assay.
Result: inactive

Problem: Name the outcome recorded for `CCC[C@H](N[C@@H](C)C(=O)N1[C@@H]2CCCC[C@H]2C[C@H]1C(=O)O)C(=O)OCC` in the assay.
Result: inactive

Problem: Name the outcome recorded for `Cc1cncc2cccc(S(=O)(=O)N3CCCN(C(=O)CN)C[C@@H]3C)c12` in the assay.
Result: active

Problem: Name the outcome recorded for `NC(=O)NO` in the assay.
Result: active

Problem: Name the outcome recorded for CC1=C(C(=O)O)N2C(=O)[C@@H](NC(=O)C(N)c3ccccc3)[C@H]2SC1 (stereo not given in full) in the assay.
Result: inactive

Problem: Name the outcome recorded for `Cc1cccc(N(C)C(=S)Oc2ccc3ccccc3c2)c1` in the assay.
Result: inactive

Problem: Name the outcome recorded for CCN(CC)CCCC(C)Nc1nc(C)cc(Nc2ccc3nc(C)cc(N)c3c2)n1 (stereo not given) in the assay.
Result: inactive

Problem: Name the outcome recorded for O=C(O)CCCCC(CCSCc1ccccc1)SCc1ccccc1 (stereo not given) in the assay.
Result: inactive

* * *

ASSAY_REMARKS: Cellular viability qHTS for adrenocortical cancer (ACC) cell line SW-13 (AID 1963989);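 note: cells grown in serum-free medium with ITS supplement; % is set by controls: 0 for no effect and ±100 for the full control effect; nearly all actives have a fitted effect of over 65% in size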
MEASUREMENT_CONTEXT: SW-13 ACC cells viability, CellTiter-Glo, 48 h; active compounds read low
Text: PI: Naris Nilubol, MD Surgical Oncology Program, National Cancer Institute (NCI) National Institute of Health (NIH), Bethesda, Maryland Adrenocortical cancer (ACC) is a rare malignancy with poor survival outcomes and few treatment options. Currently, mitotane is the only FDA-approved therapy for ACC. […] Through a quantitative high-throughput drug screen (qHTS), we identified auranofin (AF), a thioredoxin reductase (TXNRD) inhibitor, as a promising candidate drug. […]
Records with an inconclusive call do not appear.
Field: activity (max response). Provide a value for each of the molecules that follow.
I only need the number, in %, no unit after it.

Problem: What does the record list as activity (max response) for `CCCCC1C(=O)N(c2ccccc2)N(c2ccccc2)C1=O` ?
Result: -21.3

Problem: What does the record list as activity (max response) for `O=c1cc(-c2ccccc2)oc2cc(O)c(O)c(O)c12` ?
Result: -15.6

Problem: What does the record list as activity (max response) for `CCOC(=O)c1ccc(OC(=O)CCCCCN=C(N)N)cc1` ?
Result: 3.73

Problem: What does the record list as activity (max response) for `CCO/C([O-])=N/c1c[n+](N2CCOCC2)no1` ?
Result: -2.98

Problem: What does the record list as activity (max response) for Cc1ccccc1C(OCCN(C)C)c1ccccc1 (stereo not drawn) ?
Result: 14.3

Problem: What does the record list as activity (max response) for `CC(C)N(CCCNC(=O)Nc1ccc(C(C)(C)C)cc1)C[C@H]1O[C@@H](n2ccc3c(N)ncnc32)[C@H](O)[C@@H]1O` ?
Result: -3.92

Problem: What does the record list as activity (max response) for `NC(=O)c1cccc(N)c1` ?
Result: -2.32

Problem: What does the record list as activity (max response) for `CN(C)CCCSc1ccccc1NC(=O)/C=C/c1ccccc1` ?
Result: 8.03

Problem: What does the record list as activity (max response) for `c1ccc(CC2=NCCN2)cc1` ?
Result: -11.9

Problem: What does the record list as activity (max response) for `CCCCCCCCCCCCCCCCCCO` ?
Result: -0.0263

Problem: What does the record list as activity (max response) for `Nc1[nH]nc2nnc(-c3c(-c4ccccc4)nn4ccccc34)cc12` ?
Result: -4.73

Problem: What does the record list as activity (max response) for `COc1cc(O)c(C(=O)c2ccccc2)cc1S(=O)(=O)O` ?
Result: 9.22

Problem: What does the record list as activity (max response) for `CSCC[C@H](NC(=O)[C@H](Cc1c[nH]c2ccccc12)NC(=O)CCNC(=O)OC(C)(C)C)C(=O)N[C@@H](CC(=O)O)C(=O)N[C@@H](Cc1ccccc1)C(N)=O` ?
Result: 1.93

Problem: What does the record list as activity (max response) for `Nc1ccc(S(=O)(=O)Nc2ccccn2)cc1` ?
Result: 6.67

Problem: What does the record list as activity (max response) for `O=C(/C=C/c1ccc(O)c(O)c1)O[C@@H]1C[C@@](OC(=O)/C=C/c2ccc(O)c(O)c2)(C(=O)O)C[C@@H](O)[C@@H]1O` ?
Result: 4.38

Problem: What does the record list as activity (max response) for `CC1(C)[C@@H](OC(=O)CCC(=O)O)CC[C@]2(C)[C@H]3C(=O)C=C4[C@@H]5C[C@@](C)(C(=O)O)CC[C@]5(C)CC[C@@]4(C)[C@]3(C)CC[C@@H]12` ?
Result: 2.49

Problem: What does the record list as activity (max response) for `CC(=O)NCc1c(I)c(NC(C)=O)c(I)c(C(=O)O)c1I` ?
Result: 13.2

Problem: What does the record list as activity (max response) for `Cc1cn([C@@H]2O[C@H](CO)[C@@H](O)[C@H]2F)c(=O)[nH]c1=O` ?
Result: 7.23

Problem: What does the record list as activity (max response) for `CC1=C(C(=O)O)N2C(=O)[C@@H](NC(=O)[C@H](N)c3ccc(O)cc3)[C@H]2SC1` ?
Result: 8.09

Problem: What does the record list as activity (max response) for `N[C@H](Cc1c[nH]c2ccccc12)C(=O)O` ?
Result: 5.49

Problem: What does the record list as activity (max response) for `CO[C@@]1(NC(=O)Cc2cccs2)C(=O)N2C(C(=O)O)=C(COC(N)=O)CS[C@@H]21` ?
Result: 12.4

Problem: What does the record list as activity (max response) for OC(CN1CCC(Cc2ccc(F)cc2)CC1)c1ccc(Cl)cc1 (stereo not drawn) ?
Result: -8.69

Problem: What does the record list as activity (max response) for `CC(C)C[C@H](NC(=O)[C@@H](O)[C@H](N)Cc1ccccc1)C(=O)O` ?
Result: 9.42

Problem: What does the record list as activity (max response) for `CC(C)(C)C(=O)NCCCC(=O)O` ?
Result: 7.9

Problem: What does the record list as activity (max response) for `CCN(CCCOc1ccc2c(Nc3cc(CC(=O)Nc4cccc(F)c4)[nH]n3)ncnc2c1)CCOP(=O)(O)O` ?
Result: -30.5

Problem: What does the record list as activity (max response) for `COC[C@@H](c1ccc(C(F)(F)F)cc1)N1CCN(C2(C)CCN(C(=O)c3c(C)ncnc3C)CC2)C[C@H]1C` ?
Result: -14.2

Problem: What does the record list as activity (max response) for `Cc1nc2n(c(=O)c1CCN1CCC(c3noc4cc(F)ccc34)CC1)CCCC2` ?
Result: -10.2

Problem: What does the record list as activity (max response) for `S=P(N1CC1)(N1CC1)N1CC1` ?
Result: 10.4

Problem: What does the record list as activity (max response) for `CC(=O)OCC1=C(C(=O)O)N2C(=O)[C@@H](NC(=O)Cc3cccs3)[C@H]2SC1` ?
Result: 10.2

Problem: What does the record list as activity (max response) for `CCCCOC(=O)c1ccc(O)cc1` ?
Result: -18.3

Problem: What does the record list as activity (max response) for `COc1cc(N2CCN(C)CC2)ccc1Nc1nccc(-c2cn(C)c3cnccc23)n1` ?
Result: -3.47

Problem: What does the record list as activity (max response) for Nc1ccc(C(=O)OCC(O)CO)cc1 (stereo not drawn) ?
Result: 13.4

Problem: What does the record list as activity (max response) for `Cc1c[nH]c2ccccc12` ?
Result: 13.2

Problem: What does the record list as activity (max response) for `CN(C)CC[C@@H](c1ccc(Cl)cc1)c1ccccn1` ?
Result: 7.75

Problem: What does the record list as activity (max response) for `NC(=O)c1cccc2[nH]c(-c3ccc([C@H]4CCCN4)cc3F)nc12` ?
Result: -3

Problem: What does the record list as activity (max response) for `Fc1ccc(-c2nc(-c3ccccc3F)[nH]c2-c2ccncc2)cc1` ?
Result: -20.2

Problem: What does the record list as activity (max response) for `CC(C)=CCC[C@@](C)(O)[C@H]1CC=C(C)CC1` ?
Result: 18.9

Problem: What does the record list as activity (max response) for `CCOC(=O)c1ccc(C#Cc2ccc3c(c2)C(C)(C)CCS3)nc1` ?
Result: -8.69

Problem: What does the record list as activity (max response) for `NS(=O)(=O)c1cc(-c2nn[nH]n2)c(NCc2cccs2)cc1Cl` ?
Result: 11.4

Problem: What does the record list as activity (max response) for `O=C1N=C(O)CN1/N=C/c1ccc(-c2ccc([N+](=O)[O-])cc2)o1` ?
Result: 12.2

Problem: What does the record list as activity (max response) for `CN(C(=O)C(Cl)Cl)c1ccc(OC(=O)c2ccco2)cc1` ?
Result: -5.24

Problem: What does the record list as activity (max response) for `CC1CCN(c2cc(N3CCN(C)CC3)ccc2NC(=O)c2cc(C#N)c[nH]2)CC1` ?
Result: -21.1

Problem: What does the record list as activity (max response) for `Nc1ccc(C(=O)NCC(=O)O)cc1` ?
Result: -9.96
